test system: BT-549 breast; assay: NCI-60 one-dose screen, 48 h (100 = growth as untreated, 0 = no growth, -100 = all killed); details: 10 µM unless noted
This is part of a sample that, as a whole, favours compounds with a hit. Of some 83,000 tested, about 20% had one in any assay. The source made the active and inactive calls. Rule for the calls: active = growth percent below 10; inactive = the rest.

- Molecule: "CC(C)NCC(O)COc1ccc(CCOCC2CC2)cc1 (centres undefined)"
  growth: "116% (inactive)"
- Molecule: "COc1ccc(NS(=O)(=O)c2ccc(-c3cnc(C4CC4)o3)cc2)cc1"
  growth: "58.6% (inactive)"
- Molecule: "O=C1/C(=C/c2ccc([N+](=O)[O-])cc2)Oc2ccc(O)cc21"
  growth: "96.5% (inactive)"
- Molecule: "Cc1ccccc1-n1nnc(C(=O)Nc2ccc(-c3ccccc3)cn2)c1C"
  growth: "50.7% [50 µM] (inactive)"
- Molecule: "Cn1c(=O)c(S(=O)(=O)c2ccccc2)cc2ccc3c(cnn3-c3ccc(Cl)cc3)c21"
  growth: "66.1% (inactive)"
- Molecule: "O=C(CCc1nnc2sc(/C=C\\c3ccccc3)nn12)c1nc2ccccc2[nH]1"
  growth: "93.1% (inactive)"
- Molecule: "Fc1c[c-]c(-c2ccccn2)c(F)c1.Fc1c[c-]c(-c2ccccn2)c(F)c1.[Cl][Pt+].[Cl][Pt+].c1ccc([PH+](C[PH+](c2ccccc2)c2ccccc2)c2ccccc2)cc1"
  growth: "15.8% (inactive)"
- Molecule: "C[C@@H](Oc1cc(-c2cnn(C3CC4(CNC4)C3)c2)cnc1N)c1c(Cl)ccc(F)c1Cl"
  growth: "80.3% (inactive)"
- Molecule: "Nc1nc(N)c(N=Nc2c(Br)cc(S(N)(=O)=O)cc2Br)c(N)n1"
  growth: "100% (inactive)"

* * *

// values below are reported growth
test system: SR leukemia; experiment: NCI-60 one-dose screen, 48 h (100 = growth as untreated, 0 = no growth, -100 = all killed); conditions: 10 µM unless noted
This is part of a sample that, as a whole, favours compounds with a hit. Of some 83,000 tested, about 20% had one in any assay.

- Compound: "Oc1ccc2ccccc2c1C1NN=C(c2ccccc2)S1 (stereo not given)"
  growth / %: 2.39
- Compound: "COc1nc2c(cc1S(=O)(=O)c1ccccc1)CCc1c-2cnn1-c1ccccc1Cl"
  growth / %: 37.9
- Compound: "COc1ccc(-n2ncc3c4nc(OC)c(S(=O)(=O)c5ccccc5)cc4ccc32)cc1"
  growth / %: 85.9
- Compound: "CC(C)(C)CC(C)(C)N(CSc1ccc(Cl)cc1)CSc1ccc(Cl)cc1"
  growth / %: -32.7
- Compound: "Cn1cc(C(=O)NCCC(=N)N)cc1NC(=O)CN=C(N)N"
  growth / %: 104
- Compound: "Cc1nc(NN)c([N+](=O)[O-])c(NN)n1"
  growth / %: 73.5
- Compound: "COc1ccc(-c2nc3sc(C)nn3c2-c2nc3cc(C)c(C)cc3[nH]2)cc1"
  growth / %: 76.6
- Compound: "CC(=O)OCC1O[C@@H]([S-])C(OC(C)=O)[C@H](OC(C)=O)[C@@H]1OC(C)=O.[Au+].c1ccc(CN2[CH-]N(Cc3ccccc3)C(c3ccccc3)=C2c2ccccc2)cc1"
  growth / %: -29.1
- Compound: "O=C(CCc1nnc2sc(-c3ccccc3)nn12)c1nc2ccccc2[nH]1"
  growth / %: 69.6
- Compound: "O=c1[nH]c(=S)c2c(n1CCCO)CCC2"
  growth / %: 97

Reference source for all entries: PubChem BioAssay (NCI)
